- target under test: T1, NgR expressed on COS-7 cells (species not stated)
- T1 chain: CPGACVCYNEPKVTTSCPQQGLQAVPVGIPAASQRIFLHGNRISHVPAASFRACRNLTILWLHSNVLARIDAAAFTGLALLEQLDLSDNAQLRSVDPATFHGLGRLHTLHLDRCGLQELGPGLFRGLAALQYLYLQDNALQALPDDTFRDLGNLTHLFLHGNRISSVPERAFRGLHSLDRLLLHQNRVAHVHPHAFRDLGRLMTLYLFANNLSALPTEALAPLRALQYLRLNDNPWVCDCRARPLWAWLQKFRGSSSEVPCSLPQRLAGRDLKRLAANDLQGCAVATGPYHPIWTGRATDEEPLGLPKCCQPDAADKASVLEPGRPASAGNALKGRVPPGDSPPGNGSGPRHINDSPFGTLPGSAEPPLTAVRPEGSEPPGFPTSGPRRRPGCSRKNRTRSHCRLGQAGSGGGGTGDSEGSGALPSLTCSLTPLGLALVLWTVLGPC
- procedure details: AP fusion on NgR-expressing COS-7 cells
No end group written: not given here.
Hi there, I'd appreciate the recorded pKd for every entry that follows.
One number for each entry, as −log10 of the molar value.

Reported pKd for IFSAELSKTSVVDLLYWRD (ligand, also: alkaline phosphatase (AP) fusion, also called Ng19; not shown: alkaline phosphatase (AP), vector pcAP6) [AP-fused Amino-Nogo-A-19 (a.a. 995-1013)] was 8.61

Reported pKd for IFSAELSKTSVVDLLYWRDI (ligand, also: alkaline phosphatase (AP) fusion, not shown: alkaline phosphatase (AP), vector pcAP6) [AP-fused Amino-Nogo fragment a.a. 995-1014] was 8.50

Reported pKd for FSAELSKTSVVDLLYWRDIKKTG (ligand, also: alkaline phosphatase (AP) fusion, not shown: alkaline phosphatase (AP), vector pcAP6) [AP-fused Amino-Nogo fragment a.a. 996-1018] was 7.58

Reported pKd for KVLVKEAEKKLPSDTEKEDRSPSAIFSAELSKTSVVDLLYWRDIKKTG (ligand, also: alkaline phosphatase (AP) fusion, not shown: alkaline phosphatase (AP), vector pcAP6) [AP-fused Amino-Nogo fragment a.a. 971-1018] was 8.57

Reported pKd for IFSAELSKTSVVDLLYWRDIK (ligand, also: alkaline phosphatase (AP) fusion, not shown: alkaline phosphatase (AP), vector pcAP6) [AP-fused Amino-Nogo fragment a.a. 995-1015] was 8.34

---
Reported pKd for IFSAELSKTSVVDLLYWRDIKKTG (ligand, also: alkaline phosphatase (AP) fusion, also called Amino-Nogo-24; not shown: alkaline phosphatase (AP), vector pcAP6) [AP-Amino-Nogo-A-24 (a.a. 995-1018)] was 8.61
